# Test system: U2OS
# EXPERIMENT: cell viability relative to DMSO; higher = less toxic
# MEASUREMENT CONDITIONS: 72 h; 1 nM
Structures can show the parent of a compound that is named as a salt.
ENDPOINT LABEL: cell viability (%)
Only the number, expressed in %, is required.

CC(C)N(CCC(=O)c1ccc2ccccc2c1)Cc1ccccc1	99.2

Which value of cell viability has been reported for Cc1cc2c(OCC(CNC(C)(C)C)OC(=O)c3ccccc3)cccc2[nH]1 (stereo not drawn) in the records?
92.7

Which value of cell viability has been reported for `Cc1cc(C(N)=O)ccc1-n1c(CCC(=O)O)ccc1-c1ccc(-n2ccnc2)cc1` in the records?
96.7

Which value of cell viability has been reported for `Oc1ncnc2[nH]ncc12` in the records?
100

Which value of cell viability has been reported for `C=CC(=O)Nc1cccc(Nc2nc(Nc3ccc(Oc4ccnc(C(=O)NC)c4)cc3)ncc2F)c1` in the records?
92.4

Which value of cell viability has been reported for `O=[N+]([O-])c1cnc(Sc2nnc(O)n2-c2ccc3c(c2)OCCO3)s1` in the records?
98.9

Which value of cell viability has been reported for `CC[C@H]1OC(=O)[C@H](C)C(=O)[C@H](C)[C@@H](O[C@@H]2O[C@H](C)C[C@H](N(C)C)[C@H]2O)[C@](C)(OC)C[C@@H](C)C(=O)[C@H](C)[C@H]2N(CCCCn3cnc(-c4cccnc4)c3)C(=O)O[C@]12C` in the records?
88

Which value of cell viability has been reported for CNCCc1cnc[nH]1 [N-alpha-methylhistamine-dihydrochloride] in the records?
97.4

* * *

# Tested on: Caco-2
# EXPERIMENT: cell viability relative to DMSO; higher = less toxic
# MEASUREMENT CONDITIONS: 72 h; 1000 nM
# label = criterion met if cell viability < 90% else criterion not met

Take a look at these entries with their results.
O=C(C[S+]([O-])Cc1ccco1)NC/C=C\COc1cc(CN2CCCCC2)ccn1 (stereo not given) [lafutidine]	criterion not met
CN1CCCC(CN2c3ccccc3Sc3ccccc32)C1 (stereo not given) [mepazine]	criterion not met
C[C@H](CCC(=O)O)[C@H]1CC[C@H]2[C@@H]3C[C@H](O)[C@@H]4C[C@H](O)CC[C@]4(C)[C@H]3CC[C@]12C [Hyodeoxycholic acid (HDCA)]	criterion not met
Cc1ccccc1CN1C2=NCCN2C(=O)C2=C1CCN(Cc1ccccc1)C2 [TIC10]	criterion not met
CCCc1c2oc(C(=O)O)cc(=O)c2cc2c(=O)cc(C(=O)O)n(CC)c12 [nedocromil]	criterion not met
COc1cc2c(c(OC)c1OC)-c1ccc(OC)c(=O)cc1[C@@H](NC(C)=O)CC2 [colchicine]	criterion met

Dear colleague, could you confirm whether cell viability of CC(=O)O[C@H]1CC[C@@]2(C)C(=CC[C@@H]3[C@@H]2CC[C@]2(C)C(c4cccnc4)=CC[C@@H]32)C1 [abiraterone-acetate] falls below 90%? Thanks.
criterion not met

Dear colleague, could you confirm whether cell viability of Cc1cccc(Cc2c[nH]cn2)c1C [detomidine] falls below 90%? Thanks.
criterion met

Dear colleague, could you confirm whether cell viability of C[C@]12CC[C@@H](O)C[C@@H]1CC[C@@H]1[C@@H]2CC[C@]2(C)C(c3ccccc3)=CC[C@@H]12 [17-PA] falls below 90%? Thanks.
criterion not met

Dear colleague, could you confirm whether cell viability of Cc1oc2nc3c(c(NC(=O)CN4CCCC4=O)c2c1C)CCCC3 [BCI-540] falls below 90%? Thanks.
criterion not met

Dear colleague, could you confirm whether cell viability of OC[C@@H](O)[C@@H](O)[C@H](O)[C@@H](O)CO [sorbitol] falls below 90%? Thanks.
criterion not met

Dear colleague, could you confirm whether cell viability of CCCc1nn(C)c2c(=O)[nH]c(-c3cc(S(=O)(=O)N4CCN(C)CC4)ccc3OCC)nc12 [sildenafil] falls below 90%? Thanks.
criterion met

* * *

As shown below, each of these compounds has a reported cell viability value.
# Tested on: U2OS
# EXPERIMENT: cell viability relative to DMSO; higher = less toxic
# MEASUREMENT CONDITIONS: 72 h; 1 nM
Only the number, expressed in %, is required.

CCCCN(CCCC)C(=O)CN1C[C@H](c2ccc3c(c2)OCO3)[C@@H](C(=O)O)[C@@H]1c1ccc(OC)cc1 [atrasentan]	94.4
c1cnc2c([O][Ga]([O]c3cccc4cccnc34)[O]c3cccc4cccnc34)cccc2c1 [gallium-triquinolin-8-olate]	97
CC(=O)N[C@@H](C=O)[C@@H](O)[C@H](O)[C@H](O)CO [N-acetyl-D-glucosamine]	102
NCC[C@H](O)C(=O)N[C@@H]1C[C@H](N)[C@@H](O[C@H]2O[C@H](CN)[C@@H](O)[C@H](O)[C@H]2O)[C@H](O)[C@H]1O[C@H]1O[C@H](CO)[C@@H](O)[C@H](N)[C@H]1O [amikacin]	97.5

Which value of cell viability has been reported for COc1ccc(-n2c(SCCCN3C(=O)c4cccc5cccc(c45)C3=O)nnc2-c2ccncc2)cc1 [WIKI4] in the records?
100

Which value of cell viability has been reported for COc1cc(OC)c(OC)cc1C=O [asaraldehyde] in the records?
97.3

* * *

# Test system: HepG2
# EXPERIMENT: cell viability relative to DMSO; higher = less toxic
# MEASUREMENT CONDITIONS: 72 h; 10000 nM
As shown below, each of these compounds has a reported cell viability value.
Only the number, expressed in %, is required.

Below are worked cases with known answers.
CCCCNc1nc(N)c2[nH]c(=O)n(Cc3ccc(OCCN(C)C)nc3)c2n1	97.1
O=C(NC(=O)c1c(F)cccc1Cl)NC1c2ccccc2-c2ccccc21	108
CN1CCC[C@@H]1Cc1c[nH]c2ccc(CCS(=O)(=O)c3ccccc3)cc12	97
Cc1cc2sc(NC(=O)Cc3ccccc3)nc2cc1Cl	108
c1cnc2c([O][Ga]([O]c3cccc4cccnc34)[O]c3cccc4cccnc34)cccc2c1 [gallium-triquinolin-8-olate]	2.2

Which value of cell viability has been reported for `CC1(C)[C@@H](O)CC[C@]2(C)[C@H]3C(=O)C=C4[C@@H]5C[C@@](C)(C(=O)O)CC[C@]5(C)CC[C@@]4(C)[C@]3(C)CC[C@@H]12` in the records?
96

Which value of cell viability has been reported for `Cc1[nH]c(=O)c(C#N)cc1-c1ccc2nccn2c1` in the records?
104

Which value of cell viability has been reported for `COc1ccc(/C=C2\CCCN=C2c2cccnc2)c(OC)c1` in the records?
93.7

* * *

As shown below, each of these compounds has a reported cell viability value.
# System: U2OS
# EXPERIMENT: cell viability relative to DMSO; higher = less toxic
# MEASUREMENT CONDITIONS: 72 h; 1 nM
Only the number, expressed in %, is required.

Below are worked cases with known answers.
CC(C)(C#N)c1cc(Cn2cncn2)cc(C(C)(C)C#N)c1 [anastrozole]	92.7
CN(C)CCN(C)CCc1ccc(Cl)c(Cl)c1 [BD-1047]	97.2
O=C(O)CCc1ccc(NCc2cccc(Oc3ccccc3)c2)cc1 [GW-9508]	91.9
Cc1cccc(Cc2c[nH]cn2)c1C [detomidine]	101
Cc1ccc2cc(-c3c(C)ccc(C(=O)c4c(-c5ccccc5)n(C)n(-c5ccccc5)c4=O)c3N)ccc2n1 [AMG-PERK-44]	98.4

Which value of cell viability has been reported for Oc1c(Cl)cc(Cl)c2cccnc12 [chloroxine] in the records?
102

Which value of cell viability has been reported for Cc1ccc(/N=C/N(C)/C=N/c2ccc(C)cc2C)c(C)c1 [amitraz] in the records?
101

* * *

# Tested on: Calu-3
# EXPERIMENT: relative viability EC50 (midpoint between 100% and the lowest measured viability); higher = less toxic
# MEASUREMENT CONDITIONS: 72 h
As shown below, each of these molecules has a reported relative viability EC50 value.

CCOC(N)=O	> 10 µM
NCC[C@H](O)C(=O)N[C@@H]1C[C@H](N)[C@@H](O[C@H]2O[C@H](CN)[C@@H](O)[C@H](O)[C@H]2O)[C@H](O)[C@H]1O[C@H]1O[C@H](CO)[C@@H](O)[C@H](N)[C@H]1O	> 10 µM
O=C(O)c1ccccc1NCCc1ccccc1	> 10 µM
CNC(=O)c1ccc(-c2cnc3ncc(Cc4ccc5ncccc5c4)n3n2)cc1F	> 10 µM
COc1ccc(CCN(C)CCCN2CCc3cc(OC)c(OC)cc3CC2=O)cc1OC	> 10 µM

Record lookup: for Calu-3, what relative viability EC50 belongs to `O=C1C(=O)N(Cc2ccc(Cl)c(Cl)c2)c2ccccc21` ?
> 10 µM

Record lookup: for Calu-3, what relative viability EC50 belongs to `CC(C)(C#N)c1cc(Cn2cncn2)cc(C(C)(C)C#N)c1` ?
> 10 µM

Record lookup: for Calu-3, what relative viability EC50 belongs to CC(C(=O)O)c1ccc(N2Cc3ccccc3C2=O)cc1 (centres undefined) ?
> 10 µM

Record lookup: for Calu-3, what relative viability EC50 belongs to `CC[C@H]1OC(=O)[C@H](C)[C@@H](O[C@H]2C[C@@](C)(OC)[C@@H](O)[C@H](C)O2)[C@H](C)[C@@H](O[C@@H]2O[C@H](C)C[C@H](N(C)C)[C@H]2O)[C@](C)(O)C[C@@H](C)CN(C)[C@H](C)[C@@H](O)[C@]1(C)O` ?
> 10 µM
